// data source = patent US20230263822A1

# Tested on: Factor 11 protein
# TEST DETAILS: Factor 11 protein in monkey plasma by sandwich ELISA (Example 46)
# Assay type: in vivo, cynomolgus monkeys
# STATED CONDITIONS: Day −5, plasma, 25 mg/kg subcutaneously
Strand notation (5' to 3'): a small letter for the sugar, then the base; units joined by * are phosphorothioate-linked, units joined directly phosphodiester-linked; [ ] holds rarer units or linkages, { } end groups; capitals alone tell only the bases. e = 2'-O-(2-methoxyethyl) (MOE); [5mC] = 5-methylcytosine; d = 2'-deoxy (DNA)
Let's look at some substances and their measured Inhibition of Factor 11 protein relative to the PBS control (percentage reduction).
I'd appreciate it if you included the unit after the number.

The following substances have reported results that may help.
445531 (antisense eG*eG*e[5mC]*eA*eT*dT*dG*dG*dT*dG*d[5mC]*dA*d[5mC]*eA*eG*eT*eT*eT) [compound 445531] : 1%
445522 (antisense eG*e[5mC]*eA*e[5mC]*eA*dG*dT*dT*dT*d[5mC]*dT*dG*dG*e[5mC]*eA*eG*eG*e[5mC]) [compound 445522] : 0%
449708 (antisense eA*e[5mC]*eA*dG*dT*dT*dT*d[5mC]*dT*dG*dG*e[5mC]*eA*eG) [compound 449708] : 0%
449710 (antisense e[5mC]*eA*e[5mC]*dA*dG*dT*dT*dT*d[5mC]*dT*dG*dG*d[5mC]*eA*eG*eG) [compound 449710] : 0%
449709 (antisense eG*e[5mC]*eA*e[5mC]*dA*dG*dT*dT*dT*d[5mC]*dT*dG*dG*d[5mC]*eA*eG*eG*e[5mC]) [compound 449709] : 0%

Inquiry: Specify reported Inhibition of Factor 11 protein relative to the PBS control (percentage reduction) for the substance shown: 416850 (antisense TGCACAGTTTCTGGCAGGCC; 5-10-5 gapmer, further chemistry not given here) [compound 416850]
Reply text: 0%

Inquiry: Tell us which Inhibition of Factor 11 protein relative to the PBS control (percentage reduction) value is on record for 416858 (antisense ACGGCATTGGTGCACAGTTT; 5-10-5 gapmer, further chemistry not given here) [compound 416858]
Reply text: 0%

Inquiry: Using the record for 449707 (antisense e[5mC]*eA*e[5mC]*eA*dG*dT*dT*dT*d[5mC]*dT*dG*dG*e[5mC]*eA*eG*eG) [compound 449707] , state its measured Inhibition of Factor 11 protein relative to the PBS control (percentage reduction).
Reply text: 0%

Inquiry: Retrieve Inhibition of Factor 11 protein relative to the PBS control (percentage reduction) measured for 449711 (antisense eA*e[5mC]*dA*dG*dT*dT*dT*d[5mC]*dT*dG*dG*d[5mC]*eA*eG) [compound 449711] and print it.
Reply text: 1%

---

# TEST DETAILS: Hematology assays in cynomolgus monkeys (Example 45)
# Assay type: in vivo
# STATED CONDITIONS: day 57; escalating dose regimen
ASSAY METRIC: MCV (fL)
The reply should be a number in fL, with the unit left off.

ISIS 416864: MOE gapmer, nucleobases 1275 to 1318 of SEQ ID NO: 1 (Table 8) (antisense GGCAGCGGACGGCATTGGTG; MOE gapmer, wing and gap sizes not given here) : 77

Inquiry: Hello, please tell me recorded MCV for this one: ISIS 417002: MOE gapmer, nucleobases 1275 to 1318 of SEQ ID NO: 1 (Table 8) (antisense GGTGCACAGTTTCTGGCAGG; MOE gapmer, wing and gap sizes not given here)
Reply text: 80

---

# TEST DETAILS: Hematology assays in cynomolgus monkeys (Example 46)
# Type: in vivo
# STATED CONDITIONS: Day 55
Strand notation (5' to 3'): a small letter for the sugar, then the base; units joined by * are phosphorothioate-linked, units joined directly phosphodiester-linked; [ ] holds rarer units or linkages, { } end groups; capitals alone tell only the bases. e = 2'-O-(2-methoxyethyl) (MOE); [5mC] = 5-methylcytosine; d = 2'-deoxy (DNA)
The entries below are paired with their reported platelet count.

Solved entries:
ISIS 449710: 3-8-3, 4-8-4, 2-10-2, 3-10-3 or 4-10-4 MOE microwalk gapmer (Table 46) (antisense e[5mC]*eA*e[5mC]*dA*dG*dT*dT*dT*d[5mC]*dT*dG*dG*d[5mC]*eA*eG*eG) : 360 ×100/μL
ISIS 449711: 3-8-3, 4-8-4, 2-10-2, 3-10-3 or 4-10-4 MOE microwalk gapmer (Table 46) (antisense eA*e[5mC]*dA*dG*dT*dT*dT*d[5mC]*dT*dG*dG*d[5mC]*eA*eG) : 259 ×100/μL
ISIS 445531: 5-8-5 or 6-8-6 MOE microwalk gapmer (Table 44) (antisense eG*eG*e[5mC]*eA*eT*dT*dG*dG*dT*dG*d[5mC]*dA*d[5mC]*eA*eG*eT*eT*eT) : 319 ×100/μL
ISIS 416850: MOE gapmer, nucleobases 1275 to 1318 of SEQ ID NO: 1 (Table 8) (antisense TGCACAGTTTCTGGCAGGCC; MOE gapmer, wing and gap sizes not given here) : 396 ×100/μL
ISIS 449709: 3-8-3, 4-8-4, 2-10-2, 3-10-3 or 4-10-4 MOE microwalk gapmer (Table 46) (antisense eG*e[5mC]*eA*e[5mC]*dA*dG*dT*dT*dT*d[5mC]*dT*dG*dG*d[5mC]*eA*eG*eG*e[5mC]) : 441 ×100/μL

Inquiry: Indicate its recorded platelet count; the substance in question is ISIS 449707: 3-8-3, 4-8-4, 2-10-2, 3-10-3 or 4-10-4 MOE microwalk gapmer (Table 46) (antisense e[5mC]*eA*e[5mC]*eA*dG*dT*dT*dT*d[5mC]*dT*dG*dG*e[5mC]*eA*eG*eG)
Reply text: 399 ×100/μL

Inquiry: Entry ISIS 449708: 3-8-3, 4-8-4, 2-10-2, 3-10-3 or 4-10-4 MOE microwalk gapmer (Table 46) (antisense eA*e[5mC]*eA*dG*dT*dT*dT*d[5mC]*dT*dG*dG*e[5mC]*eA*eG) needs its platelet count filled in; supply it.
Reply text: 348 ×100/μL

Inquiry: Answer with reported platelet count of ISIS 416858: MOE gapmer, nucleobases 1275 to 1318 of SEQ ID NO: 1 (Table 8) (antisense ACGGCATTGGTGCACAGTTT; MOE gapmer, wing and gap sizes not given here)
Reply text: 257 ×100/μL

Inquiry: Find the measured platelet count of ISIS 445522: 5-8-5 or 6-8-6 MOE microwalk gapmer (Table 44) (antisense eG*e[5mC]*eA*e[5mC]*eA*dG*dT*dT*dT*d[5mC]*dT*dG*dG*e[5mC]*eA*eG*eG*e[5mC]) and report it.
Reply text: 333 ×100/μL

---

# key: entry, value: AST
# TEST DETAILS: Tolerability in CD1 mice: liver function, ALT, AST, bilirubin, albumin (Example 33)
# STATED CONDITIONS: plasma, 50 mg/kg s.c. twice a week, 2 weeks
# unit: IU/L | format: bare number

Reference set (3 entries):
ISIS 416858: MOE gapmer, nucleobases 1275 to 1318 of SEQ ID NO: 1 (Table 8) (antisense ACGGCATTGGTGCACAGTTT; MOE gapmer, wing and gap sizes not given here) : 236
ISIS 416850: MOE gapmer, nucleobases 1275 to 1318 of SEQ ID NO: 1 (Table 8) (antisense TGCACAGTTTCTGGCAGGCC; MOE gapmer, wing and gap sizes not given here) : 72
ISIS 416864: MOE gapmer, nucleobases 1275 to 1318 of SEQ ID NO: 1 (Table 8) (antisense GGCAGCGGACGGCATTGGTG; MOE gapmer, wing and gap sizes not given here) : 58

Inquiry: Supply measured AST of ISIS 416838: MOE gapmer, nucleobases 1018 to 1042 of SEQ ID NO: 1 (Table 6) (antisense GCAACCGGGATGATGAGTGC; MOE gapmer, wing and gap sizes not given here) in your reply.
Reply text: 106

Inquiry: Report AST for ISIS 417002: MOE gapmer, nucleobases 1275 to 1318 of SEQ ID NO: 1 (Table 8) (antisense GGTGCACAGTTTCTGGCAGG; MOE gapmer, wing and gap sizes not given here)
Reply text: 96

---

# Tested on: Factor 11 protein
# TEST DETAILS: Factor 11 protein in monkey plasma by sandwich ELISA (Example 46)
# Format: in vivo, cynomolgus monkeys
# STATED CONDITIONS: Day 17, plasma, 25 mg/kg subcutaneously
Strand notation (5' to 3'): a small letter for the sugar, then the base; units joined by * are phosphorothioate-linked, units joined directly phosphodiester-linked; [ ] holds rarer units or linkages, { } end groups; capitals alone tell only the bases. e = 2'-O-(2-methoxyethyl) (MOE); [5mC] = 5-methylcytosine; d = 2'-deoxy (DNA)
ASSAY METRIC: Inhibition of Factor 11 protein relative to the PBS control (percentage reduction) (%)
Response body: numeric value in %, unit text excluded.

Known Inhibition of Factor 11 protein relative to the PBS control (percentage reduction) results, listed for orientation:
449710 (antisense e[5mC]*eA*e[5mC]*dA*dG*dT*dT*dT*d[5mC]*dT*dG*dG*d[5mC]*eA*eG*eG) [compound 449710] : 14
449707 (antisense e[5mC]*eA*e[5mC]*eA*dG*dT*dT*dT*d[5mC]*dT*dG*dG*e[5mC]*eA*eG*eG) [compound 449707] : 19
449709 (antisense eG*e[5mC]*eA*e[5mC]*dA*dG*dT*dT*dT*d[5mC]*dT*dG*dG*d[5mC]*eA*eG*eG*e[5mC]) [compound 449709] : 35

Inquiry: Quote Factor 11 protein Inhibition of Factor 11 protein relative to the PBS control (percentage reduction) for entry 449708 (antisense eA*e[5mC]*eA*dG*dT*dT*dT*d[5mC]*dT*dG*dG*e[5mC]*eA*eG) [compound 449708] .
Reply text: 15

Inquiry: Report Inhibition of Factor 11 protein relative to the PBS control (percentage reduction) under test system Factor 11 protein for 445531 (antisense eG*eG*e[5mC]*eA*eT*dT*dG*dG*dT*dG*d[5mC]*dA*d[5mC]*eA*eG*eT*eT*eT) [compound 445531] .
Reply text: 22

Inquiry: Would you please give the reported Inhibition of Factor 11 protein relative to the PBS control (percentage reduction) of 445522 (antisense eG*e[5mC]*eA*e[5mC]*eA*dG*dT*dT*dT*d[5mC]*dT*dG*dG*e[5mC]*eA*eG*eG*e[5mC]) [compound 445522] with Factor 11 protein?
Reply text: 50
